- System tested: KRAS-G12C (C51S/C80L/C118S) (Homo sapiens, UniProt P01116, C118S/C51S/C80L/G12C)
- Sequence (P01116 with tags, fused parts or gaps isoform P01116-2 G12C/C51S/C80L/C118S): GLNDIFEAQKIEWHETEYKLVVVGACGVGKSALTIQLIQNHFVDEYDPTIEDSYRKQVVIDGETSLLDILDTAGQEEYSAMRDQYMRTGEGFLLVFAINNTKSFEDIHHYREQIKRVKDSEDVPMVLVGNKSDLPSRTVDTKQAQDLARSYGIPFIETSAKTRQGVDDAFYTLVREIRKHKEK
- Test name: SOS-catalyzed nucleotide exchange assay (Procedure A, TR-FRET), KRAS-G12C
- Type: biochemical
- Test conditions: nucleotide exchange, Procedure A; read-out: KRAS G12C GNE IC50
What pIC50 was measured for each of the following?
One number for each entry, as −log10 of the molar value.

Below, each entry is followed by its recorded pIC50 result.
Compound: Cc1cc2[nH]ncc2c(-c2nccc3c4c(N5CC6CCC(F)(C5)N6)nc(OC[C@@]56CCCN5C[C@H](F)C6)nc4n(C)c23)c1C(F)(F)F (single isomer, unassigned)
pIC50: 6.72

Compound: C[C@@]1(O)COCCN(c2nc(OC[C@@]34CCCN3C[C@H](F)C4)nc3sc4c(-c5ccc(F)c6sc(N)c(C#N)c56)nccc4c23)C1
pIC50: 5.65

We now examine a further compound.
Tell me its pIC50 on KRAS-G12C (C51S/C80L/C118S) (Homo sapiens, UniProt P01116, C118S/C51S/C80L/G12C): Cc1cc2[nH]ncc2c(-c2nccc3c2sc2nc(OC[C@@]45CCCN4C[C@H](F)C5)nc(NC4CCC4)c23)c1C(F)(F)F 6.37

====

- System tested: KRAS-G12C (C51S/C80L/C118S) (Homo sapiens, UniProt P01116, C118S/C51S/C80L/G12C)
- Test name: SOS-catalyzed nucleotide exchange assay (Procedure A, TR-FRET), KRAS-G12C
- Assay type: biochemical
- Test conditions: nucleotide exchange, Procedure A; read-out: KRAS G12C GNE IC50
Threshold check on IC50: strictly below 90 nM is 1.0; on or above 90 nM is 0.0.

Would you kindly verify if IC50 of C[C@@]1(O)COCCN(c2nc(OC[C@]3(CN4CC5(CCOC5)C4)CC3(F)F)nc3sc4c(-c5c(C6(F)CC6)c(Cl)cc6[nH]ncc56)nccc4c23)C1 [Ex-245] is strictly less than 90 nM? 1.0

Would you kindly verify if IC50 of COC1(C)CN(C[C@@]2(COc3nc(N4CCOC[C@@](C)(O)C4)c4c(n3)sc3c(-c5c(C6(F)CC6)c(Cl)cc6[nH]ncc56)nccc34)CC2(F)F)C1 [Ex-240] is strictly less than 90 nM? 1.0

Would you kindly verify if IC50 of CCc1c(F)ccc2cc3[nH]ncc3c(-c3nccc4c3sc3nc(OC[C@@]56CCCN5C[C@H](F)C6)nc(N5CCOC[C@@](C)(O)C5)c34)c12 [Ex-167] is strictly less than 90 nM? 1.0

Would you kindly verify if IC50 of Cc1cc2[nH]ncc2c(-c2nccc3c4c(N5CCOC[C@@](C)(O)C5)nc(OC[C@]5(CN(C)C)CC5(F)F)nc4n(C)c23)c1C(F)F (single isomer, unassigned) [Ex-19] is strictly less than 90 nM? 1.0

Would you kindly verify if IC50 of Cc1nc2[nH]nc(C)c2c(-c2nccc3c4c(N5CCOC[C@@](C)(O)C5)nc(OC[C@@]56CCCN5C[C@H](F)C6)nc4n(C)c23)c1C(F)(F)F [Ex-15] is strictly less than 90 nM? 0.0

====

- System tested: KRAS-WT (Homo sapiens, UniProt P01116)
- Sequence (P01116 with tags, fused parts or gaps isoform P01116-2): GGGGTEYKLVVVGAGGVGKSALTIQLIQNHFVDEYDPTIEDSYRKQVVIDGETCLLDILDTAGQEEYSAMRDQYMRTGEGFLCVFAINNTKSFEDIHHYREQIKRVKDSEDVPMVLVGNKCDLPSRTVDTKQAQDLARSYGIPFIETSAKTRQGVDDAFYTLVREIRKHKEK
- Test name: SOS-catalyzed nucleotide exchange assay (Procedure A, TR-FRET), KRAS-WT
- Assay type: biochemical
- Test conditions: nucleotide exchange, read-out: KRAS WT GNE IC50
What log10(IC50) was measured for each of the following?
All values: base-10 log of IC50 in µM.

Molecule: C=C1CN2C[C@@H](F)C[C@@]2(COc2nc(N3CCOC[C@@](C)(O)C3)c3c(n2)sc2c(-c4c(C5CC5)c(Cl)cc5[nH]ncc45)nccc23)C1 [Ex-222]
Value observed: -0.98

Give measured log10(IC50) for every item shown.
1. C[C@@]1(O)COCCN(c2nc(OC[C@@]34CCCN3C[C@H](F)C4)nc3sc4c(-c5cccc(Cl)c5C5CC5)nncc4c23)C1 [Ex-284]
2. CN1CCC[C@H]1COc1nc(N2CCOC[C@@](C)(O)C2)c2c(n1)sc1c(-c3c(C4CC4)c(Cl)cc4[nH]ncc34)nccc12 [Ex-80]
3. C[C@@]1(O)COCCN(c2nc(OC[C@@]34CCCN3C[C@H](F)C4)nc3sc4c(-c5cccc6c5CC5CC65)nccc4c23)C1 (single isomer, unassigned) [Ex-119]
4. C[C@@]1(O)COCCN(c2nc(OC[C@]3(CN4C[C@H]5COC[C@H]5C4)CC3(F)F)nc3sc4c(-c5c(C6(F)CC6)c(Cl)cc6[nH]ncc56)nccc4c23)C1 [Ex-235]
5. C=C(c1c(C)cc2[nH]ncc2c1-c1nccc2c1sc1nc(OC[C@@]34CCCN3C[C@H](F)C4)nc(N3CCOC[C@@](C)(O)C3)c12)C(F)(F)F [Ex-66]

1: -0.24; 2: -1.05; 3: -0.18; 4: -1.50; 5: -0.66
